Test system: HCMV UL50-UL53 nuclear egress complex (human cytomegalovirus)
Procedure details: inhibitors of HCMV UL50-UL53 interaction, biochemical, HTRF (AID 1918969)
Condition notes: normalized percent inhibition, active compounds read high, concentration not given here
Screen size: about 190,000 compounds; about 280 (0.15%) were called active. The list comes from a sample in which actives are over-represented; it also holds close analogues and randomly drawn compounds.
Measured endpoint: inhibition (%)
Give bare numbers, in %.

Solved entries (count: 5):
CCOC(=O)c1c(NC(=O)CSc2nccn2C)sc2c1CCC(C)C2 (stereo unspecified); -12.2
O=C(OCc1nc2ccccc2s1)c1coc2ccccc2c1=O; 54.6
O=C1CN(S(=O)(=O)c2ccc(-c3ccc(=O)[nH]n3)s2)c2ccccc2N1; -43.4
NC(=O)c1ccc(-c2ccccc2)cc1C(N)=O; -28.2
O=C(CCc1nc2ccccc2s1)OCC(=O)c1ccco1; -34.2

Look at each molecule and report its inhibition.
1. CCOC(=O)c1ccc(N=C2SC(C(=O)Nc3ccc(C)cc3C)CC(=O)N2C)cc1 (stereo unspecified)
2. Cc1ccc(NC(=O)CCCc2nc3cccnc3n2CCC(C)C)cc1
3. NNC(=O)CCCc1nc2ccccc2s1
4. CCc1nc(-c2cc(S(=O)(=O)N3CCCC(C(=O)Nc4ccc(C)c(F)c4)C3)c(C)s2)no1 (stereo unspecified)
5. OC(Cc1nc2ccccc2o1)c1ccccc1 (stereo unspecified)
6. CC12CCOC1N(c1ccccc1)c1ccccc12 (stereo unspecified)

1: -8.2; 2: -10.6; 3: -31.3; 4: -9.2; 5: -3.6; 6: -18.7
